- procedure.details: Metabolic stability in human liver microsomes
- Assay type: in vitro ADME
- condition.parameters: pH 7.4, 37° C., read-out: T ½
outcome.measure: half-life

>>> df
                                   molecule  outcome_measure    result
0  CC(C)c1cc(Oc2c(Cl)cc(-n3nc(C#N)c(=O)[nH]c3=O)cc2Cl)n[nH]c1=O [MGL-3196, Resmetirom, reference compound]        half-life  < 6.67 h
1  N#Cc1nn(-c2ccc(Oc3cc(CC4CCCC4)c(=O)[nH]n3)c(F)c2)c(=O)[nH]c1=O [Compound 7]        half-life    18.3 h
2  N#Cc1nn(-c2cc(Cl)c(Oc3cc(CC4CCCC4)c(=O)[nH]n3)c(Cl)c2)c(=O)[nH]c1=O [Compound 6]        half-life    16.3 h
3  Cc1c(Oc2ccc(-n3nc(C#N)c(=O)[nH]c3=O)cc2Cl)n[nH]c(=O)c1C [Compound 24]        half-life    14.5 h

----------
- target: THRβ (Homo sapiens)
- Construct: GST
- Sequence (P10828 1-461): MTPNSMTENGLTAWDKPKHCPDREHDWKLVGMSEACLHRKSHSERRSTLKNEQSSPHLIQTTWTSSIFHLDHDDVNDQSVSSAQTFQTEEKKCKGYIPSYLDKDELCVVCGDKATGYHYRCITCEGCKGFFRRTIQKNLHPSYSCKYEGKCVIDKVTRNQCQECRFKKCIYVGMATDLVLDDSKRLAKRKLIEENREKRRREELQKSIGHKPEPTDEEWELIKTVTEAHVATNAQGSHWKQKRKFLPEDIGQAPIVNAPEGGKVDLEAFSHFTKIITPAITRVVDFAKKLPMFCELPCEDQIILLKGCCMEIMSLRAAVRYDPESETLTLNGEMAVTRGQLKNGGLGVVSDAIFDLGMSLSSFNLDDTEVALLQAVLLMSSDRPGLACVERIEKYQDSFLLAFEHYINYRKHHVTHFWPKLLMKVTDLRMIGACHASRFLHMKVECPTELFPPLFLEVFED
- Sequence (P19793 225-462 partner limits assumed): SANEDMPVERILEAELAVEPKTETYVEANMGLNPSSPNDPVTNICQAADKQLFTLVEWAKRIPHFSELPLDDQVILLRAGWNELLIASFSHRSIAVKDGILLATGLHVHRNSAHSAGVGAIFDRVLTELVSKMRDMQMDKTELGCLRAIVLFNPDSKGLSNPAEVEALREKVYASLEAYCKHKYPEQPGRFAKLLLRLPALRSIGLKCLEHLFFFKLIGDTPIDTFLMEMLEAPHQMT
- Sequence (Q15596 679-703 partner limits assumed): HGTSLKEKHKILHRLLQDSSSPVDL
- procedure.details: THRβ agonist activity, fluorescence ratio 665 nm/615 nm with EE-RxRα and biotin-GRIP
- condition.parameters: incubated overnight at 4° C.
Each record here notes measured EC50.
outcome.measure: EC50 (nM)

In [3]: df
Out[3]:
                                   compound  outcome_measure  numeric_readout
0  CC(C)c1cc(Oc2c(Cl)cc(-c3c[nH]c(=O)c(O)c3)cc2Cl)n[nH]c1=O [Compound 47]             EC50             1650
1  CC(C)c1cc(=O)[nH]nc1Oc1ccc(-n2nc(C#N)c(=O)[nH]c2=O)c(Cl)c1 [Compound 36]             EC50             4160
2  CC(C)(C)Cc1cc(Oc2c(Cl)cc(-n3cc(C#N)c(=O)[nH]c3=O)cc2Cl)n[nH]c1=O [Compound 43]             EC50             40.3
3  CC(C)(C)Cc1cc(Oc2c(Cl)cc(-n3nc(C#N)c(=O)[nH]c3=O)cc2Cl)n[nH]c1=O [Compound 18]             EC50             31.1
4  COc1cc(-n2nc(C#N)c(=O)[nH]c2=O)ccc1Oc1cc(C(C)C)c(=O)[nH]n1 [Compound 31]             EC50             62.5
5  CC(C)(C)c1cc(Oc2ccc(-n3nc(C#N)c(=O)[nH]c3=O)cc2F)n[nH]c1=O [Compound 2]             EC50               21
